# TESTED TARGET: UniProtKB P04626
# Sequence (P04626 whole entry, the tested form may be a part): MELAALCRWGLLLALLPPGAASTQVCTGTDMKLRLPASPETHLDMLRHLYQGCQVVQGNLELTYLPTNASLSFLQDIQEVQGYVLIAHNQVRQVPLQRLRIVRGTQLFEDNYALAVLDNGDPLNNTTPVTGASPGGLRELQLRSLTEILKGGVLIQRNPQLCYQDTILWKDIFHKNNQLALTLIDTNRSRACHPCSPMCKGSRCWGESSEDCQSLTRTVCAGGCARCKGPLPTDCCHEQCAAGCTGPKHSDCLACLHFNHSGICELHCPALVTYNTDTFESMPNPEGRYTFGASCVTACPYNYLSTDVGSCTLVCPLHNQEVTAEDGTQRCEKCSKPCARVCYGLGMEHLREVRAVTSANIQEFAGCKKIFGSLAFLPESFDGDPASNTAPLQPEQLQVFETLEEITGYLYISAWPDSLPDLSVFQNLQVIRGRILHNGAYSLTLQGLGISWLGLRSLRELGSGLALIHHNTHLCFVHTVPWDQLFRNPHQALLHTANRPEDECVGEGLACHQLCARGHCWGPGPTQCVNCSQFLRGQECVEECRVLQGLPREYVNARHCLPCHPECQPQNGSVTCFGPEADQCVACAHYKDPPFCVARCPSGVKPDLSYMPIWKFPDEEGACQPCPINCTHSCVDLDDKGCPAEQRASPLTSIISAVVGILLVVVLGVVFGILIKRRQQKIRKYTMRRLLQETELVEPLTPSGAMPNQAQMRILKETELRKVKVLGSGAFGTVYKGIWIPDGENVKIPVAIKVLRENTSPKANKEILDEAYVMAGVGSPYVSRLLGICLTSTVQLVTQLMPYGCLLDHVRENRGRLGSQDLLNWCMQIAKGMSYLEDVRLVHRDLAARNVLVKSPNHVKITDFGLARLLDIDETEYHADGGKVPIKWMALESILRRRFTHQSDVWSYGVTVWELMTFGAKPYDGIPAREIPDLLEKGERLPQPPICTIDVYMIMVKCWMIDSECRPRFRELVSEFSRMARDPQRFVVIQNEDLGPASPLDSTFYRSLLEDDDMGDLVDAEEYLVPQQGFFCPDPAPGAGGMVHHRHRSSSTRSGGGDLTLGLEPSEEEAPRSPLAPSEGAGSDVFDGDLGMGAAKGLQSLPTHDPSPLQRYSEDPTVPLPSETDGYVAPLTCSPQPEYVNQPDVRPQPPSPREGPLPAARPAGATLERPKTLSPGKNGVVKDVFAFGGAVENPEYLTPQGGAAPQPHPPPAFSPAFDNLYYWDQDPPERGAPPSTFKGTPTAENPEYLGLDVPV
# RUN DESCRIPTION: Inhibition of recombinant human N-terminal GST His6-tagged thrombin cleavage site-fused ErbB2 kinase domain (Q679 to V1255 residues) expressed in baculovirus infected insect Sf9 cells using biotinylated poly-EY as substrate after 60 mins by alphascreen assay
pIC50: −log10 of the molar value.
PARAMETER MEASURED: pIC50

> print(dat)
                                   compound  parameter.measured  measured.value
1  COc1cc2c(Nc3ccc(Br)c(Cl)c3F)ncnc2cc1OC[C@@H]1CN2CCC[C@H]2CO1               pIC50    6.00 to 7.30
2  COc1cc2c(Nc3ccc(Br)c(Cl)c3)ncnc2cc1O[C@@H]1CO[C@H]2[C@@H]1OC[C@@H]2NS(C)(=O)=O               pIC50    6.00 to 7.30
3  COc1cc2c(Nc3cc(Cl)c(Cl)c(Cl)c3)ncnc2cc1OCC1CN(C)CCO1 (centres undefined)               pIC50    6.00 to 7.30
4  COc1cc2c(Nc3cc(Cl)c(Cl)cc3F)ncnc2cc1OCC1CN(C)CCO1 (centres undefined)               pIC50    6.00 to 7.30
5  COc1cc2c(Nc3cc(Cl)c(Cl)cc3F)ncnc2cc1OC[C@@H]1CN2CCC[C@H]2CO1               pIC50    6.00 to 7.30
6  COc1cc2c(Nc3ccc(Br)c(Cl)c3Cl)ncnc2cc1OC[C@@H]1CN2CCC[C@H]2CO1               pIC50    6.00 to 7.30

Problem: Report its pIC50 with UniProtKB P04626 as the test system: COc1cc2c(Nc3ccc(Br)c(C)c3)ncnc2cc1OCC1CN(C)CCO1 (centres undefined)
Result: 6.00 to 7.30

Problem: Param request: pIC50 | system UniProtKB P04626 | item COc1cc2c(Nc3ccc(Cl)c(Cl)c3)ncnc2cc1OCCC1CN(C(=O)OC(C)(C)C)C(C)(C)CO1 (centres undefined)
Result: 4.70 to 6.00

Problem: Check UniProtKB P04626 data and give pIC50 for CC(C)Oc1cc2c(Nc3ccc(Cl)c(Cl)c3)ncnc2cc1OCC1CN(C)CCO1 (centres undefined) .
Result: > 7.30
